assay: blockers of LMP1-induced NF-kB reporter signal – cell-based, luminescence, single point, primary screen (AID 504558); conditions: LMP1-induced NF-kappaB luciferase reporter cells, at 12.5 µM
Hit rate of the full screen: of about 350,000 compounds, about 2,400 (0.69%) were called active. Rule as the data show it: active = inhibition above about 41%; inconclusive = no clear call, values can overlap the other calls; inactive = below that. Only a selection was taken, and actives are over-represented in it overall.
Allowed answers: active, inactive

Write down the call the test reported for this compound. Item: CC=C(C)C(=O)OC1CCN2CC=C(COC(=O)C(O)(C(C)OC)C(C)(C)O)C12 (stereo unspecified)
inactive

Write down the call the test reported for this compound. Item: `CCC/C(=N\O)c1c[nH]c2ccccc12`
inactive

Write down the call the test reported for this compound. Item: CC(C)c1c(CN(C)C(C)Cc2ccccc2)n(C)n(-c2ccccc2)c1=O (stereo unspecified)
active

Write down the call the test reported for this compound. Item: O=C1C2(Cl)C3(Cl)C4(Cl)C(Cl)(Cl)C5(Cl)C3(Cl)C1(Cl)C5(Cl)C24Cl (stereo unspecified)
inactive

Write down the call the test reported for this compound. Item: `Clc1cccc(Cl)c1Cl`
inactive

Write down the call the test reported for this compound. Item: `c1cc2c(cc1[C@H]1OC[C@H]3[C@@H]1CO[C@@H]3c1ccc3c(c1)OCO3)OCO2`
inactive

Write down the call the test reported for this compound. Item: `Cc1ccc(-c2nn(CCC#N)cc2C(=O)O)cc1C`
inactive

Write down the call the test reported for this compound. Item: C[C@]12CC[C@H](O)C[C@H]1CC[C@@H]1C2CC[C@]2(C)[C@@H](C3=CC(=O)OC3)[C@@H](O)C[C@]12O (stereo partly specified)
inactive

Write down the call the test reported for this compound. Item: `CN(C)C(=O)Oc1ccc(NC(=O)N2CCOCC2)cc1`
inactive

Write down the call the test reported for this compound. Item: `NCCc1c[nH]c2ccc(O)cc12`
inactive

Write down the call the test reported for this compound. Item: `CN1CCN(c2cc(N3CCNCC3)ccc2[N+](=O)[O-])CC1`
inactive
